// data source = paper PMC9103439

Procedure Details: Quenching activity towards HNE (residual HNE by HPLC-UV)
Applied Conditions: percentage of quenched HNE at 3 h
Structures can show the parent of a compound that is named as a salt.
Values of HNE Quenching (%) 3 h greater than or equal to 40% map to yes; values below map to no.

# Compound, Label Class
records = [
    ("NC(=O)C(Cc1c[nH]cn1)NC(=O)C1CCCN1 [ProHis-NH2, L-Pro-L-His-NH2]", "no"),
    ("NC(=O)[C@@H]1CCCN1C(=O)[C@H](Cc1cnc[nH]1)NC(=O)[C@@H]1CCC(=O)N1 [TRH, thyrotropin-releasing hormone, reference compound]", "no"),
    ("NC(Cc1cnc[nH]1)C(=O)N1CCCC1C(=O)O (stereo not drawn) [HisPro, His-Pro]", "no"),
    ("O=C1NC(Cc2cnc[nH]2)C(=O)N2CCCC12 (stereo not drawn) [CHP, Cyclo(His-Pro)]", "no"),
    ("O=C(O)C(Cc1c[nH]cn1)NC(=O)C1CCCN1 [ProHis, L-Pro-L-His-OH dihydrochloride]", "yes"),
]
